# max response per entry
assay summary: qHTS assay for small molecule antagonists of retinoid X receptor alpha signaling (AID 588546);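 note: cells stimulated with 9-cis-retinoic acid as agonist; % is set by controls: 0 for no effect and ±100 for the full control effect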
test conditions: HEK293T RXRa-UAS-bla, beta-lactamase ratio, antagonist mode; measured here: W530 green channel, cytotoxicity proxy
Results filed as inconclusive are left out.

{"smiles notation": "CN(C)C(=S)SC(=S)N(C)C", "max response [%]": 5.78}
{"smiles notation": "COc1cccc2c1C(=O)c1c(O)c3c(c(O)c1C2=O)C[C@@](O)(C(=O)CO)C[C@@H]3O[C@H]1C[C@H](N)[C@H](O)[C@H](C)O1", "max response [%]": -19.8}
{"smiles notation": "NC(=NCCCCCCN=C(N)/N=C(\\N)Nc1ccc(Cl)cc1)/N=C(\\N)Nc1ccc(Cl)cc1", "max response [%]": 21.2}
{"smiles notation": "COc1cccc2c1C(=O)c1c(O)c3c(c(O)c1C2=O)C[C@@](O)(C(C)=O)C[C@@H]3O[C@H]1C[C@H](N)[C@H](O)[C@H](C)O1", "max response [%]": -11.9}
{"smiles notation": "Oc1c(Cl)cc(Cl)cc1Sc1cc(Cl)cc(Cl)c1O", "max response [%]": 1.12}
